Reference source: the domain aggregation screens of Martell et al. (2025)

Experiment: soluble fraction after stress (log2 fold change); higher = more stays soluble; pooled small domains, quantitative proteomics
Conditions: stress: 50 degC
Threshold check on soluble fraction (log2): at or above 0.02 gives MET, strictly below gives NOT MET.

# count of solved cases: 7
>>> print(df.to_string())
                             residue_string  answer_label
0  HMGPAYEKIVANGQTFYRYNVKKGEGLMAVSRTFNVSVNDILKYNPSAASGLKDGQELLIPVIDDA           MET
1  HMHRTMFYLDVDLAEGQSVKMAVHEDDDPGELAARFADEHQLKSRAMEKLRSVIEENVRLHRRNQ       NOT MET
2  HMASGLITEEQAKSKALAHAGLSASQVNFIWVKQDWEDGRRVYEVEFYTDDYQEYDYEIDARTGEILSFDY       NOT MET
3  HMGAKLTTAQGGTLKVLVKGKKTHTPTIELRDKDPDFPNAKVVQPDINKGNKQIAHGINGVL           MET
4  HMSQEHTVPDYKDMEATVVYADLTQKGLNYEIAQETSPTIKEGNVTQTIPGMNEKVVSGDTITVFVSTGTG           MET
5  HMGGNVYAYRLTASVKSGEQIPANKIEKVKMLSSDLPTNYVPDTVNVTAYKSKLDLQAGTILSTSLLYEN           MET
6  HMGNYRVIKWGMQGDDVKLMQQMLINRGYVLSATGKYASRTLKAIMAFQEANGLKADGIVGKRTWNKLL       NOT MET

Moving on to the next sequence.
Query string: Decide: soluble fraction (log2) of HMYSKVSFTVSVGMTSERVSASLKALGIIDDSAKFNRYLVSNGYSTRIKVGTVELQAGQSYAEIASKLV >= 0.02?
Result string: NOT MET

----------
# reported soluble fraction (log2); entries follow
Test: soluble fraction after stress (log2 fold change); higher = more stays soluble; pooled small domains, quantitative proteomics
Settings: stress: 50 degC
Write no unit; give the number alone.

Some sequences with known soluble fraction (log2) results, for comparison:
>>> df
                             residue_string  result_number
0  HMQQEAVSGKLLQLDLAKKEGRLSTDLGREVLFHIPKPELFVHLSVGQRIIIKLDAGQEAVGV        -0.0409
1  HMSDPASLQRRLMSDPELTARILDSPFTRSLLDDPNLLRQMVNANPQLRRAMDANPQLRHAL          -0.21
2  HMPAPKPSGALSLKDEPLYAASDSKRRSGTVSGTYYRWDGENVNGRMRITNKQENIGKAGQVTGWITAH          0.087

Shifting focus to the sequence that follows.
Query string: Quick one: give measured soluble fraction (log2) for HMKNAYDLKMLVKDNDGNIERNMKYYFFLANGSKVEGITDDNGYTKTITTIQPEKADLHLINDELI
Result string: -1.1

----------
# reported soluble fraction (log2); entries follow
Test: soluble fraction after stress (log2 fold change); higher = more stays soluble; pooled small domains, quantitative proteomics
Settings: stress: 50 degC
Write no unit; give the number alone.

                             residue_string       attribute_measured  result_number
0  HMINDPSALGQRAFVDELLWMAGYVPEKIEIYQTLPNNSRVYRVKLDSVNGGFIFIRWDKKKKEHYV  soluble fraction (log2)          0.114
1  HMSEKRLHLVVDESDVNTRIDKYIADELDGYSRSFIQKLIKDNNVLVNGRAVKPNYNIGISDNIDIVLPKL  soluble fraction (log2)       -0.00587
2  HMGVPVTAPMPGKVLKVTVSVGAAVKNGDLVLVLEAMKMENEIFATANGVVKEIRSREGDTVNSGDVMMVI  soluble fraction (log2)         -0.533

Query string: Quick one: give measured soluble fraction (log2) for HMDLLAESLTRREAEVAALAARGLTNRAIAELFGLSVRTAETHLHRAMGKLGANRREDLLLHADRLDPG
Result string: -0.629

Query string: Quick one: give measured soluble fraction (log2) for HMAATGPLTPREAEIARLAAGHLSNRQIAEQLVVSERTVENHLYRIFIKLAVTGRDDLAAALAATEQ
Result string: -0.689

Query string: Quick one: give measured soluble fraction (log2) for HMDQHERQQLLIHIAGGEREALAELYQRTRSAVYGLALSYLKNAHDAQDLTRDVYVQVWDRA
Result string: 0.344

Query string: Quick one: give measured soluble fraction (log2) for HMGNASQAARRQRIVDAALELLQDRPYDQIQMRDVAEGAGVALGTLYRYFPSKEQLFAHVLVE
Result string: 0.027

Query string: Quick one: give measured soluble fraction (log2) for HMGVSDDMARGVVRARQFLSDFAAVPLDRMTPAEAVARARQLKSELETDAKHSPWLLDVLSNA
Result string: -0.0848

----------
Assay: soluble fraction after stress (log2 fold change); higher = more stays soluble; pooled small domains, quantitative proteomics
Conditions: stress: 50 degC
ATTRIBUTE_MEASURED: soluble fraction (log2)
Write no unit; give the number alone.

Some sequences with known soluble fraction (log2) results, for comparison:
In [3]: df
Out[3]:
                             residue_string  result_number
0  HMRGFGEVGQLPSGRYRARYTGPDGGRHSAPITFVARIDAEGWLVDQERMISRGEWEPPARQ         -0.224
1  HMSTMKSKWFVSSNPIAGVMKYQAQRKKDVNAVDSSENREASGQWYTDKEEAQAIVDKLNAEEQIKEAGK          0.159
2  HMGVNNDIIKHRKLEFMIEMLPDTFTRKEANEIGEGLGISLATLTRYLSSDAFERTGHGRYRKKD          -1.08

Query string: Quick one: give measured soluble fraction (log2) for HMAMPQPVARALHRLGQDISAARRMRRLSQEDLAQRIGTSLSTVRRMEDGYPGTALHTFLRALHML
Result string: -0.261

----------
Test: soluble fraction after stress (log2 fold change); higher = more stays soluble; pooled small domains, quantitative proteomics
Conditions: stress: 50 degC
ATTRIBUTE_MEASURED: soluble fraction (log2)
Write no unit; give the number alone.

Query string: Quick one: give measured soluble fraction (log2) for HMDESLIEEAKAMILQMKIEGSVRVRSNGLLEFRNPLFGSVYGRSVEELQEKLNKKVREQKSRI
Result string: -0.0459

Query string: Quick one: give measured soluble fraction (log2) for HMKQISNTDELETMVKKIIDDNEEQVNKYRGGNEKLFGWFVGQAMKNTGGTANPKVVNEILSKLLK
Result string: 0.0976

Query string: Quick one: give measured soluble fraction (log2) for HMKRSFGYIRLLPSKRYQASYIGPDSQRHAAPETFTRKMDAEGWLSAERRLIEWDQWTSPEQRAAQARLD
Result string: -0.591

Query string: Quick one: give measured soluble fraction (log2) for HMNTAIDGLIEKVGMFAMEKKAISVDQVKENFSINGEQAESVIKQLETIGVLGKKNEDGTHTVM
Result string: 0.0766

Query string: Quick one: give measured soluble fraction (log2) for HMTVPTEVALELMHATALEDNEQRILYIASFKEKHREHLHATIEVDGQEVTLARYADLVATGAYL
Result string: -0.505

----------
Assay: soluble fraction after stress (log2 fold change); higher = more stays soluble; pooled small domains, quantitative proteomics
Settings: stress: 50 degC
Threshold check on soluble fraction (log2): at or above -0.2 gives Met, strictly below gives Not met.

# count of solved cases: 2
>>> df
                             residue_string  answer_label
0  HMQISDNTILEDAVSRIIDENPKSVSDYFQGKEAVVGFFIGQIMRETKGTANPKIAREIVISHLEAI       Not met
1  HMTVVSVDDQASASSEAIRTKVAGDSAARMSVDAGGKITWGAGSASGDVTLYRSAANTLKTDDTLVAT           Met

Query string: Decide: soluble fraction (log2) of HMKLTNNDFIRLKTFMYNNYGINLENKKTLIETRLAIVVKRLGFNDFKSYIDNLMRDKTGEQASIIVGKLT >= -0.2?
Result string: Not met

Query string: Decide: soluble fraction (log2) of HMSVDIWTGAQTGNIEAVKQHLADGVDVNSKSDIGRTALDVAIAFKQPLITDLLRKHGGKTRDELKAAE >= -0.2?
Result string: Met

Query string: Decide: soluble fraction (log2) of HMDEVPMPPEYQYLRVGSRVHHATFGWGKVTRLSQPWPQTRAEVFFENIGPKKLVLAHAHLTMD >= -0.2?
Result string: Not met

Query string: Decide: soluble fraction (log2) of HMLSRNEWLVMEALWERPSTLMELVRQLGQEPPGWAKSTTATMVRRMEEKGLIRHEAGSKARVYHP >= -0.2?
Result string: Not met

Query string: Decide: soluble fraction (log2) of HMINYYELLKLDMNAAHEEINDAIKLESEKNTIPEDQIRTMKSIFFNTEFKKEYDQRLMNFLLT >= -0.2?
Result string: Not met

Query string: Decide: soluble fraction (log2) of HMGVPTEQEIGKRILAWRKLRGMTLQQLADKAGVGLTTIHNLETGLWYAKMPTYLYIAEALGVSLDALIYG >= -0.2?
Result string: Not met

Query string: Decide: soluble fraction (log2) of HMGDADDLTRIKGIGPKLSKTLNELGIYHFRQIAGWQSDEADWVDDYLSFKGRVMREQWIEQAQKFAS >= -0.2?
Result string: Not met

Query string: Decide: soluble fraction (log2) of HMKQYSFEISKADFKKISENFNFKIINEINDSLIISLNDKNINLDELLIFFVERKIKVRSIENI >= -0.2?
Result string: Not met
